# subject-of-test: Nicotinamide N-methyltransferase (Homo sapiens)
# test-summary: Confirmatory Screen for Target Class Profiling of Small Molecule Inhibitors of Methyltransferases (AID 1745852)
# measurement-context: MTase-Glo luminescence, SAH detection, recombinant enzyme; measured here: NNMT max response; stronger effect = lower value
In this section, each of the molecules is paired with its reported activity.
measure-name: activity (%)

> print(dat)
                                   molecule  meas.value
1  Cc1ccc(C(N)=O)cc1Nc1nccc(-c2cn(C(C)C)c3cnccc23)n1       -53.8
2  Nc1cccc(-c2cc3c(Oc4cccc(O)c4)ncnc3[nH]2)c1       -47.2
3  O=C(O)C1(Cc2cccc(Nc3nccs3)n2)CCC(Oc2cccc(Cl)c2F)CC1 (stereo not drawn)       -34.5
4  Cc1cc(Nc2cc(N3CCN(C)CC3)nc(Sc3ccc(NC(=O)C4CC4)cc3)n2)n[nH]1       -2.46
5  Nc1ccccc1NC(=O)c1ccc(CNc2nccc(-c3cccnc3)n2)cc1       -33.2
6  Nc1ncnc2c1c(-c1cccc(OCc3ccccc3)c1)cn2C1CC(CN2CCCC2)C1 (stereo not drawn)       -68.2
7  C=CCn1c(=O)c2cnc(Nc3ccc(N4CCN(C)CC4)cc3)nc2n1-c1cccc(C(C)(C)O)n1       -8.48
8  Nc1ncnc2c1c(-c1cnc3[nH]ccc3c1)nn2C1CCCC1       -56.1

----------
# test-summary: Quantitative High-Throughput drug screen in 47 multiple myeloma cell lines against the NCATS MIPE library collection: KMM1_JCRB cell viability assay (AID 1918960); further: nearly all actives have a fitted effect of over 30% in size
# measurement-context: KMM1 myeloma viability, CellTiter-Glo ATP luminescence, 48 h; series mostly up to 45.8 µM
Records with an inconclusive call do not appear. Calls of active or inactive are those of the source. Calls come from the whole dose curve; as a rule, active = well fitted cell-killing curve with a large enough effect; inconclusive = small, poorly fitted or top-dose-only effect, or effect the other way; inactive = no such curve, though single readings can be large or run the other way.
Labels: active, inactive

> print(dat)
                                   compound       cat
1  N#Cc1c(O)c2c(-c3ccc(-c4ccccc4O)cc3)csc2[nH]c1=O  inactive
2         OCc1ccc(-c2ccc(-c3ccc(CO)s3)o2)s1  inactive
3  O=C(CCCCCCNC(=O)c1cnc(N(c2ccccc2)c2ccccc2)nc1)NO    active
4  COc1cc2c(Oc3ccc(NC(=O)C4(C(=O)Nc5ccc(F)cc5)CC4)cc3F)ccnc2cc1OCCCN1CCOCC1    active
5  C[C@]12CC[C@H](O)CC1=CCC1C2CC[C@]2(C)C(n3cnc4ccccc43)=CCC12 (some centres undefined)  inactive
6  CCCn1c(=O)c2[nH]c(-c3cnn(Cc4cccc(C(F)(F)F)c4)c3)nc2n(CC)c1=O    active
7              C1Cc2[nH]nc(-c3nn[nH]n3)c2C1  inactive
8  Cn1cncc1[C@@](N)(c1ccc(Cl)cc1)c1ccc2c(c1)c(-c1cccc(Cl)c1)cc(=O)n2C    active
9  C[C@@H](Oc1cc(-n2cnc3ccc(CN4CCN(C)CC4)cc32)sc1C(N)=O)c1ccccc1C(F)(F)F    active

----------
# test-summary: qHTS of pediatric cancer cell lines to identify multiple opportunities for drug repurposing: Primary screen for Saos-2 cells (AID 1347097); further: nearly all actives have a fitted effect of over 40% in size; further: potency means the concentration at half of the fitted maximal effect
# measurement-context: Saos-2 viability, CellTiter-Glo ATP luminescence, 48 h; series mostly up to 46 µM
Inconclusive results are not listed. Active and inactive are the calls of the source. Calls come from the whole dose curve; as a rule, active = well fitted cell-killing curve with a large enough effect; inconclusive = small, poorly fitted or top-dose-only effect; inactive = no such curve, though single readings can be large or run the other way.
measure-name: Potency

> print(dat)
                                   compound         meas.value
1  C=CCn1c(=O)c2cnc(Nc3ccc(N4CCN(C)CC4)cc3)nc2n1-c1cccc(C(C)(C)O)n1   1050 nM (active)
2  Clc1cccc(-n2nnnc2NCc2ccccc2Oc2ccccn2)c1Cl           inactive
3  COc1cc2nccc(Oc3ccc(NC(=O)C4(C(=O)Nc5ccc(F)cc5)CC4)cc3)c2cc1OC  18700 nM (active)
4  O=C1CCC[C@@H]2[C@H]3CCC[N+]4([O-])CCC[C@@H](CN12)[C@@H]34 (some centres undefined)           inactive
5  CC(C)(O)c1cc2nc(-c3cnc(N)nc3)nc(N3CCOCC3)c2s1    235 nM (active)
6  Nc1nc(Nc2ccc(S(N)(=O)=O)cc2)nn1C(=O)c1c(F)cccc1F  13200 nM (active)
7  COC(=O)[C@]12CCC(C)(C)C[C@@H]1[C@@H]1C(=O)C=C3[C@@]4(C)C=C(C#N)C(=O)C(C)(C)[C@@H]4CC[C@@]3(C)[C@]1(C)CC2    743 nM (active)
8  CCOc1cc2ncc(C#N)c(Nc3ccc(F)c(Cl)c3)c2cc1NC(=O)C=CCN(C)C   2960 nM (active)
9  Nc1nccc(Oc2ccc(NC(=O)c3c[nH]cc(-c4ccc(F)cc4)c3=O)cc2F)c1Cl  18700 nM (active)
